B1: Cytoplasmic polyadenylation element-binding protein 2, residues 513 to 575; numbered along this chain, Q7Z5Q1 (parent)
chain: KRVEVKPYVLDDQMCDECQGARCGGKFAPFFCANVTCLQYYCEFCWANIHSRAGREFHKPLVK

Variants of: B1
Test: abundance fitness (aPCA) (normalised: wild type 0, dead -1); higher = more abundant; growth selection in yeast, the domain comes from the species named
Details: Homo sapiens
Class (required): determined from abundance fitness; valid ranges are bucket A = under -0.3, bucket B = from -0.3 up to -0.09, bucket C = -0.09 and over

C23V    bucket A
A28V    bucket B
Y40E    bucket A
L38P    bucket A
H50M    bucket A

Hello team, could you let me know which band the following variant falls into: K59G bucket B

Hey, which category is E56A in, do you know? bucket A

Into which category would you place A28F ? bucket A

Quick check: band for G25Q bucket C

Which category does the recorded abundance fitness put F31T in? bucket A
